Biological target: CDK2-cyclin A^173−432 (human, UniProt P24941 1-298; P20248 173-432)
Assay: fluorescence polarisation
No end group written: not given here.
measured-metric: Kd

SACRNLFGPV-NH2 (not fully specified (N-terminus)) [FITC-p27^27−36 peptide] yielded Kd of 2100 nM
